tested on: HT29 colon; assay: NCI-60 one-dose screen, 48 h; conditions: 10 µM unless noted
Compounds without any hit were thinned out: in the full panel of roughly 83,000, 20% have a hit. Active and inactive are the calls of the source. The calls were made as follows: active = growth percent below 10; inactive = the rest.
Choose the fitting class; nothing outside active, inactive is accepted.

Incoming: Would you mind telling me which call this test gave COc1cc(Cn2cc(F)c(=O)[nH]c2=O)cc(OC)c1 ?
Outgoing: inactive

Incoming: Would you mind telling me which call this test gave Cc1ccc(S(=O)(=O)N2CCc3ccc(O)c4c3C2Cc2cc(Cl)ccc2-4)cc1 (stereo not given) ?
Outgoing: inactive

Incoming: Would you mind telling me which call this test gave Cc1ccc(S(=O)(=O)N2CCc3ccc(O)c4c3C2CCc2ccccc2-4)cc1 (stereo not given) ?
Outgoing: inactive

Incoming: Would you mind telling me which call this test gave O=C1/C(=C/c2ccc(Cl)cc2)N=C(c2ccccc2)N1CCc1cccs1 ?
Outgoing: active

Incoming: Would you mind telling me which call this test gave Cc1nn2c(-c3nc4ccc(Cl)cc4[nH]3)c(-c3ccc(F)cc3)nc2s1 ?
Outgoing: inactive

====

test system: DU-145 prostate; experiment: NCI-60 one-dose screen, 48 h (100 = growth as untreated, 0 = no growth, -100 = all killed); details: 10 µM unless noted
Compounds without any hit were thinned out: in the full panel of roughly 83,000, 20% have a hit. Active and inactive are the calls of the source. How the source made its calls: active means growth percent below 10; inactive means the rest.
quantity: growth

Reported growth for Cn1c2c(cc(S(=O)(=O)c3ccccc3)c1=O)CCc1c-2cnn1-c1ccccc1Cl was 120% (inactive)

Reported growth for O=C(NCc1ccc(F)cc1)C1CN(c2ccc(Cl)cc2)N(c2ccc(Cl)cc2)C1=O (centres undefined) was 85.3% (inactive)

Reported growth for CC(=O)c1cc(C)c(OC(=O)c2ccccc2)c(C)c1 was 102% (inactive)

Reported growth for O=C(CCc1nnc2sc(/C=C\c3ccccc3)nn12)c1nc2ccccc2[nH]1 was 98% (inactive)

Reported growth for Cc1ccc(NS(=O)(=O)c2ccc(-c3cnc(C4CC4)o3)cc2)cc1 was 49.7% (inactive)

Reported growth for CC(=O)Nc1ccc(S(=O)(=O)N/N=C\c2ccc(Cl)c(Cl)c2)cc1 was 110% (inactive)

Reported growth for O=C1NC(=S)S/C1=C\c1cccc([N+](=O)[O-])c1 was 111% (inactive)

Reported growth for CN1CCN(C)c2cncc(Br)c2C1=O was 114% (inactive)

Reported growth for CCOC(=O)c1[nH]c2cc(Cl)ccc2c1[C@@H](C(=O)NC(C)(C)C)N(CC)C(=O)CCCCC#Cc1cccc2c1CN(C1CCC(=O)NC1=O)C2=O (some centres undefined) was 32.8% (inactive)

Reported growth for CCN(c1ccc(C(=O)N2CCN(c3ccccc3)CC2)cc1)S(C)(=O)=O was 108% (inactive)

Reported growth for Cc1ccc2nc(NC(=O)CSC(=S)N3CCN(C)CC3)sc2c1 was 122% (inactive)

Reported growth for Cc1ccc(S(=O)(=O)N(c2ccc(Cl)cc2)c2ccc(Br)cc2C(=O)O)cc1 was 117% (inactive)

Reported growth for CCN1CCN(c2ccc(Nc3ncc4ccc5ncn(C(C)C)c5c4n3)nc2)CC1 was -22.7% (active)

Reported growth for COc1nc2c(cc1S(=O)(=O)c1ccccc1)CCc1c-2cnn1-c1ccccc1Cl was 90.8% (inactive)

Reported growth for Nc1ccccc1-c1n[nH]c(=O)[nH]c1=O was 121% (inactive)

Reported growth for NS(=O)(=O)c1ccc(C(=O)N/N=C(\CS(=O)(=O)c2ccccc2)c2cc3cc(Br)ccc3o2)cc1 was 101% (inactive)

Reported growth for Cc1nc(NC(=O)COc2cccc(/C=C3\COc4ccccc4C3=O)c2)sc1C was 63.1% (inactive)

Reported growth for COc1ccc(S(=O)(=O)ON=C2C=C(C)C(=O)C(C)=C2)cc1 was 101% (inactive)

Reported growth for CC1(C)N=C(N)N=C(N)N1c1cccc(OCCOc2cccc([N+](=O)[O-])c2)c1 was 45.1% (inactive)

Reported growth for COc1ccc(/C=C/C(=O)N2CCC(O)CC2)cc1OC1CCCC1 was 110% (inactive)

Reported growth for Oc1ccc(Cl)cc1CNc1nc2ccccc2[nH]1 was -50.6% (active)

Reported growth for c1ccc2cc(-c3n(Cc4ccc5ccccc5n4)c4ccccc4[n+]3Cc3ccc4ccccc4n3)ccc2c1 was 13.3% (inactive)

Reported growth for O=[N+]([O-])c1cc2c(cc1Br)C1C(C3C2C(Cl)(Cl)C(Cl)=C(Cl)C3(Cl)Cl)C(Cl)(Cl)C(Cl)=C(Cl)C1(Cl)Cl (centres undefined) was 108% (inactive)

Reported growth for Cc1c(C(=O)Nc2nc(-c3ccccc3)cs2)nnn1-c1cccc2ccccc12 was 64.7% [50 µM] (inactive)

Reported growth for COCCOC1=C(Cl)C(=O)c2ccccc2C1=O was 38.7% (inactive)

Reported growth for COC(=O)c1c2c(c(C)[n+]([O-])c1C)C(=O)C=C(NCc1cccc(OC)c1)C2=O was -99.1% (active)

Reported growth for O=C1NC(=O)C(CSc2ccccc2)(c2ccccc2)N1 (centres undefined) was 123% (inactive)

Reported growth for C[C@H]1C(=O)C23CCC1C[C@@]21O[C@@H]2C(C)(C)C=CC(=O)C23COC1=O was 104% (inactive)

Reported growth for COc1ncnc2c1ncn2C/C(Br)=C(\Br)CCl was 36.8% (inactive)

Reported growth for Cc1ccc(S(=O)(=O)N2CCc3ccc(O)c4c3C2Cc2cc(Cl)ccc2-4)cc1 (centres undefined) was 85.5% (inactive)

Reported growth for Fc1c[c-]c(-c2ccccn2)c(F)c1.Fc1c[c-]c(-c2ccccn2)c(F)c1.[Cl][Pt+].[Cl][Pt+].c1ccc([PH+](C[PH+](c2ccccc2)c2ccccc2)c2ccccc2)cc1 was 22.8% (inactive)

Reported growth for COc1c(Cl)ccc2c(-c3nc4cc(Cl)c(F)cc4s3)cc(=O)oc12 was 97.1% (inactive)

Reported growth for C(=C\c1ccccc1)/CN1CCN(C(c2ccccc2)c2ccccc2)CC1 was 109% (inactive)

Reported growth for CC(C)(C)[Si](C)(C)OC1[C@@H](O[Si](C)(C)C(C)(C)C)[C@@H](CNC(=O)NC(=O)C(F)(F)F)O[C@H]1n1cnc2c(NC(=O)Nc3ccccc3)ncnc21 (some centres undefined) was -81.2% (active)

Reported growth for C[C@@H](Oc1cc(-c2cnn(C3CC4(CCCNC4)C3)c2)cnc1N)c1c(Cl)ccc(F)c1Cl (some centres undefined) was 36.7% (inactive)

Reported growth for COC(=O)c1c2c(c(C)[n+]([O-])c1C)C(=O)C(NCc1ccc(O)cc1)=CC2=O was -69.2% (active)

Reported growth for COc1cc(/C=C2\C(=O)Nc3ccccc32)cc(OC)c1O was 92.5% (inactive)

Reported growth for Clc1nc(-c2ccccn2)nc2sc3c(c12)CCCCCC3 was 22.6% (inactive)

Reported growth for Brc1ccc(SCN(CSc2ccc(Br)cc2)Cc2ccccc2)cc1 was 96.8% (inactive)

====

Kindly state growth for each of the entries shown.
system: 786-0 renal; assay: NCI-60 one-dose screen, 48 h (100 = growth as untreated, 0 = no growth, -100 = all killed); conditions: 10 µM unless noted
The panel holds about 83,000 compounds, 20% with a hit somewhere; the sample as a whole holds those more often.
Could you give me the number in %? Just the number is fine.

Reported growth for COc1ccc(Cn2c(Br)c3c(c2-c2cc(OC)c(OC)c(OC)c2)CCc2sc(N)nc2-3)cc1 was 40.2

Reported growth for CC(=O)c1cc(C)c(OC(=O)c2ccccc2)c(C)c1 was 100

Reported growth for COc1nc2c(cc1S(=O)(=O)c1ccccc1)CCc1c-2cnn1-c1ccccc1 was 76.5

Reported growth for C[C@H]1C(=O)C23CCC1C[C@@]21O[C@@H]2C(C)(C)C=CC(=O)C23COC1=O was 109

Reported growth for CCCCCCCC/C=C\CCCCCCCCOc1cccc(CC(=O)NCC[N+]2(C)CCCC2)c1 was 93.9

Reported growth for CCN(CC)c1ccc(/C=C(\C#N)c2cc3ccccc3[nH]2)cc1 was 80

Reported growth for NC(=O)c1cc(I)ccc1NC(=O)COc1ccccc1 was 33.7

Reported growth for Cc1ccc(S(=O)(=O)N2C/C(=C\c3cc(F)cc(F)c3)C(=O)/C(=C/c3cc(F)cc(F)c3)C2)cc1 was -85.6

Reported growth for COc1ccc(/C=C2\SC(=O)N(CN3CCN(c4cc5c(cc4F)c(=O)c(C(=O)O)cn5C4CC4)CC3)C2=O)cc1 was 93.1

====

Tested on: SF-539 CNS
Test: NCI-60 one-dose screen, 48 h
Conditions: 10 µM unless noted
Protocol: Cells are grown in 96 well plates and exposed to the test compound for 48 hours. Compounds are tested at a single concentration, which is 10^-5 M for most compounds. The reported endpoint is percent growth (GI% or GIPRCNT), where numbers from 0 - 100% represent growth inhibition, and numbers from -100% - 0 represent cell death. For example, a value of 40 represents 60% growth inhibition. A value of 0 means no net growth occurred over the course of the experiment. […]
Compounds without any hit were thinned out: in the full panel of roughly 83,000, 20% have a hit. The source made the active and inactive calls. How the source made its calls: active means growth percent below 10; inactive means the rest.
Choose the fitting class; nothing outside y = active, n = inactive is accepted.

Incoming: Would you mind telling me which call this test gave c1ccc2cc(-c3n(Cc4ccc5ccccc5n4)c4ccccc4[n+]3Cc3ccc4ccccc4n3)ccc2c1 ?
Outgoing: y

Incoming: Would you mind telling me which call this test gave C=C(C)CCCC(C)CC#N (stereo unspecified) ?
Outgoing: n

Incoming: Would you mind telling me which call this test gave COc1cc(C2CC(=O)Nc3c2ccc2ccccc32)cc(Br)c1OC (stereo unspecified) ?
Outgoing: y

Incoming: Would you mind telling me which call this test gave CN1CCN(C(=O)OCCOCCOC(=O)N2CCN(C)CC2)CC1 ?
Outgoing: n

Incoming: Would you mind telling me which call this test gave COc1cccc2c(=O)c3c(sc12)c(NCCN(C)C)nc1ccccc13 ?
Outgoing: n

Incoming: Would you mind telling me which call this test gave Cc1nc2cc(Nc3nc(Nc4ccc(F)cc4)nc(N4CCCC4)n3)ccc2n1Cc1ccccc1 ?
Outgoing: y

Incoming: Would you mind telling me which call this test gave C[C@@H](Oc1cc(-c2cnn(C3CC4(CNC4)C3)c2)cnc1N)c1c(Cl)ccc(F)c1Cl ?
Outgoing: n

Incoming: Would you mind telling me which call this test gave CN(C)c1ccc(/C=C(\C#N)c2cc3ccccc3n2C)cc1 ?
Outgoing: y

Incoming: Would you mind telling me which call this test gave O=C1C(N2CCOCC2)=Cc2cccc3cccc1c23 ?
Outgoing: n

Incoming: Would you mind telling me which call this test gave COc1cccc(C2CC(=O)Nc3cc4c(cc32)OCO4)c1OC (stereo unspecified) ?
Outgoing: n

Incoming: Would you mind telling me which call this test gave Cc1nc2cc(Nc3nc(NCCN)nc(Nc4ccc(F)cc4)n3)ccc2n1Cc1ccccc1 ?
Outgoing: n
